assay: in vitro; details: human, hela cells, % viability
Value Type: viability at 28.5 h, 10 µM (%)
Answers are plain numbers, in %.

molecule=Cc1cc(NC(=O)C(C)C)nc2c1c(=O)oc1ccccc12 units_text=% measured_number=89.7
molecule=CN1CCN(C(=O)C2CCN(S(=O)(=O)c3ccc4ccccc4c3)CC2)CC1 units_text=% measured_number=88.1
molecule=CC(C)(CNC(=O)c1ccc(=O)n(CC(=O)NC2CCCCC2)c1)c1ccccc1F units_text=% measured_number=90.7
molecule="[2H]C(C(=O)NCc1ccc2c(c1)CCC2)n1cc(-c2ccc(CN3CCC(C)CC3)cc2)nn1 (centres unmarked)" units_text=% measured_number=97.7

For each of the items listed, what is its viability at 28.5 h, 10 µM?
1. Cc1sc2ncn(CC(=O)NCCCN3CCCCC3)c(=O)c2c1C
2. CN(C)C(=O)c1ccc(-c2ncc(OCCN3CCCC3=O)nc2N)cc1
3. Cc1cc(-c2cnoc2C2CCCN(C(=O)c3cccs3)C2)on1 (centres unmarked)
4. O=C(NCCc1ccccc1)N(Cc1ccc(-c2ccccc2)cc1)CC1CCNCC1
5. O=C(NCCCO)c1cc2ccccc2[nH]1
6. NC(=O)c1cccc(COc2ccccc2C(=O)Nc2ccc(-c3ccsc3)cc2C(=O)O)c1

Key:
1: 96.7; 2: 97.5; 3: 102; 4: 106; 5: 87.9; 6: 82.6

List reported viability at 28.5 h, 10 µM for each of these molecules:
1. Cc1ccc([N+](=O)[O-])cc1NC(=O)C1CCCN1S(=O)(=O)c1ccc(Cl)cc1 (centres unmarked)
2. CC1C(=O)N(c2ccc(Cl)c(Cl)c2)C(=N)N1c1nc(N(C)C)nc(N(C)C)n1 (centres unmarked)
3. CCCCn1c(SCC(=O)NCC2(c3ccc4c(c3)OCCO4)CCCC2)n[nH]c1=O
4. c1ccc2c(c1)CCN2c1ncnc2c1nc1n2CCCCC1
5. COc1ccc(-c2nc3cc(NC(=O)C(c4ccccc4)c4ccccc4)ccc3o2)cc1
6. CC1Cc2ccccc2N1CCNC(=O)Cc1cn2ccsc2n1 (centres unmarked)
7. Cc1ccn(CCNC(=O)Cn2c3c(c4ccccc42)CCC3)n1

Key:
1. 95.7
2. 93.2
3. 99.6
4. 91.1
5. 113
6. 87.6
7. 86.5

Quick one: give me viability at 28.5 h, 10 µM for each item below, same order please.
1. Cc1ccc2nsnc2c1NC(=O)CN1CCN(c2ccc(F)cc2)CC1
2. Cc1noc(C)c1Cn1cc(NS(=O)(=O)c2cccs2)cn1
3. COc1cc2c(cc1OC)C(C)N(C(=O)CCC(=O)O)CC2 (centres unmarked)
4. Cc1ccc(OC(C)C(=O)NCCCN2CCOCC2)cc1C (centres unmarked)
5. O=C(Nc1n[nH]c2ccccc12)c1ccccc1
6. O=C(NC(Cc1cccs1)c1nccs1)c1cc[nH]n1 (centres unmarked)

Key:
1. 98.9
2. 97.9
3. 92.5
4. 94.3
5. 90.1
6. 87.4

###

test: in vitro; conditions: human, hela cells, % viability
Hi there, I'd appreciate the recorded viability at 28.5 h, 10 µM for every entry that follows.
Numbers only, in %.

Field: example entries. Status: answers known.
compound=C/C(=C/C(=O)NCc1ccc(Cl)cc1)C(=O)O value_type="viability at 28.5 h, 10 µM" measured_number=105
compound=Cc1ccc(C(=O)N/C(=C\c2cccc([N+](=O)[O-])c2)c2n[nH]c(=S)[nH]2)cc1 value_type="viability at 28.5 h, 10 µM" measured_number=87
compound=O=C(O)CCc1cccnc1 value_type="viability at 28.5 h, 10 µM" measured_number=92.2
compound=COc1ccccc1-c1cnc2[nH]c(=O)n(Cc3ccc(F)c(Cl)c3)c2n1 value_type="viability at 28.5 h, 10 µM" measured_number=103

Exercise: GET /values?readout=viability at 28.5 h, 10 µM&item= NCc1ccc(OC2CCNCC2)cc1 [CBK003920T]
Key: 88.7
